- study.target: Cellular tumor antigen p53 (Homo sapiens) (UniProt P04637)
- Sequence (P04637 whole entry, looked up): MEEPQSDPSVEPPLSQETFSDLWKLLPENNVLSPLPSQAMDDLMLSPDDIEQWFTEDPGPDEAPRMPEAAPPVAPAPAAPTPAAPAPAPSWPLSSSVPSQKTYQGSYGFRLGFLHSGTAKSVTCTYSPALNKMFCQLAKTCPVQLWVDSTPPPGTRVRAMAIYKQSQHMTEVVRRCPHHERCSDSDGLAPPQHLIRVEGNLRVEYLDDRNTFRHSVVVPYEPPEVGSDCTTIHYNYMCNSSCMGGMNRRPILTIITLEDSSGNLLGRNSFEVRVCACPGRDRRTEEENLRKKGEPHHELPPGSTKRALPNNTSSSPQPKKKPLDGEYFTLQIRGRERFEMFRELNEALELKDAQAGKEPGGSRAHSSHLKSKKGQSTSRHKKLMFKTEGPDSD
- procedure.summary: TOX21_p53_BLA_p5_ratio: Tox21 HCT-116 p53 Agonism Beta-lactamase Assay, Ratio, Phase 5 (AID 2283599)
Results filed as inconclusive are left out. The source made the active and inactive calls. The calls were made as follows: active = hit-call score of the fitted dose curve at least 0.9, where 1 is the maximum; inconclusive = response in the unintended direction; inactive = score below 0.9.
measurement.name: AC50

Use these answered entries as a reference point.
{"compound": "Cc1cc2nc(N)sc2cc1C", "measurement.name": "AC50", "value": "inactive"}
{"compound": "c1cc2ccc3ccc4ccc5cccc6c(c1)c2c3c4c56", "measurement.name": "AC50", "value": "2.79 µM (active)"}
{"compound": "CC1=C(/C=C/C(C)=C/C=C/C(C)=C/C=C/C=C(C)/C=C/C=C(C)/C=C/C2=C(C)C[C@@H](O)CC2(C)C)C(C)(C)C[C@H](O)C1", "measurement.name": "AC50", "value": "38.8 µM (active)"}
{"compound": "CC(C)NCC1CCc2cc(CO)c([N+](=O)[O-])cc2N1 (stereo unspecified)", "measurement.name": "AC50", "value": "inactive"}
{"compound": "CC(C)NCC(O)COc1cccc2[nH]ccc12 (stereo unspecified)", "measurement.name": "AC50", "value": "inactive"}

Query: Fill blank: measured AC50 of the compound CC[C@@]1([C@@H]2O[C@@H]([C@H]3O[C@@](O)(CO)[C@H](C)C[C@@H]3C)C[C@@H]2C)CC[C@H]([C@]2(C)CC[C@]3(C[C@H](O)[C@@H](C)[C@@H]([C@@H](C)[C@@H](OC)[C@H](C)C(=O)O)O3)O2)O1 (stereo in doubt) is ____.
Result: inactive

* * *

- procedure.summary: IUF_NPC2b_neuronal_migration_120hr: Leibniz Research Institute for Environmental Medicine (IUF) 120-hour Neural Progenitor Cell Migration Assay for Neuron Migration (NPC2b) (AID 2284300)
Calls of active or inactive are those of the source. The calls were made as follows: active = hit-call score of the fitted dose curve at least 0.9, where 1 is the maximum; inactive = score below 0.9.
Bench note: report the call from 1 for active, 0 for inactive

{"compound": "NC(N)=Nc1nc(CSCCC(N)=NS(N)(=O)=O)cs1", "qualitative.label": 0}
{"compound": "C[C@H](CS)C(=O)N1CCC[C@H]1C(=O)O", "qualitative.label": 0}
{"compound": "CN(C)CCC(c1ccc(Cl)cc1)c1ccccn1 (stereo unspecified)", "qualitative.label": 0}
{"compound": "[Cl-].[Cl-].[NH2-].[NH2-].[Pt+4]", "qualitative.label": 0}

Query: Any idea what this test logged for Cc1c(O)cccc1C(=O)N[C@@H](CSc1ccccc1)[C@H](O)CN1C[C@H]2CCCC[C@H]2C[C@H]1C(=O)NC(C)(C)C ?
Result: 1

Query: Now this one: CC1(C)S[C@@H]2[C@H](NC(=O)[C@H](N)c3ccc(O)cc3)C(=O)N2[C@H]1C(=O)O
Result: 0

* * *

- study.target: Cellular tumor antigen p53 (Homo sapiens)
- procedure.summary: TOX21_p53_BLA_p2_ratio: Tox21 HCT-116 p53 Agonism Beta-lactamase Assay, Ratio, Phase 2 (AID 2283592)
Results filed as inconclusive are left out. The source made the active and inactive calls. The calls were made as follows: active = hit-call score of the fitted dose curve at least 0.9, where 1 is the maximum; inconclusive = response in the unintended direction; inactive = score below 0.9.
Bench note: report the call from active, inactive

Some solved entries appear below for comparison.
{"molecule": "CC(C)(C)NCC(O)c1cc(O)cc(O)c1 (configuration not stated)", "qualitative.label": "inactive"}
{"molecule": "CN(C)CCOC(=O)COc1ccc(Cl)cc1", "qualitative.label": "inactive"}
{"molecule": "CC(C)CC(=O)CC(C)CC(C)C (configuration not stated)", "qualitative.label": "inactive"}

Query: Any idea what this test logged for O=C(O)CNC(=O)c1ccc([N+](=O)[O-])cc1 ?
Result: inactive

Query: Now this one: CC(C)(C)C(=O)OCOC(=O)C1N2C(=O)CC2S(=O)(=O)C1(C)C (configuration not stated)
Result: inactive

Query: Now this one: O=C(O)/C=C/c1ccc(Cn2ccnc2)cc1
Result: inactive

Query: Now this one: CCCCCCCCCCCCN(CCO)CCO
Result: active

Query: Now this one: NC(CS)C(=O)O (configuration not stated)
Result: inactive

Query: Now this one: NC(Cc1ccc(F)cc1)C(=O)O (configuration not stated)
Result: inactive

Query: Now this one: C[C@@H]1C[C@H]2[C@@H]3CCC4=CC(=O)C=C[C@]4(C)[C@@]3(F)[C@@H](O)C[C@]2(C)[C@@]1(O)C(=O)COC(=O)c1cccc(S(=O)(=O)O)c1
Result: inactive

Query: Now this one: CN1CCC(CN2c3ccccc3Sc3ccccc32)C1 (configuration not stated)
Result: inactive

Query: Now this one: CC/C=C\C/C=C\C/C=C\C/C=C\C/C=C\C/C=C\CCC(=O)O
Result: inactive

The measurements presented in this section are drawn from PubChem BioAssay (EPA / NIEHS).
